Every entry's value here was drawn from ChEMBL document CHEMBL1201862.

Reported GI50 values are given for each entry in this list.
Test system: A498
Assay: NCI tumour cell line growth inhibition, 48 h
Active and inactive are the calls of the source. Cut-off read from the data, not from the text of the source: active = GI50 up to about 1.1 µM and inactive = higher.
outcome_measure: GI50

{"compound": "O=C(O)C1OC1(c1cccc(Cl)c1)c1ccccc1Cl (stereo unspecified)", "outcome_measure": "GI50", "result": "79.1 µM (inactive)"}
{"compound": "CCCCCCCCNC(=S)N/C=C1\\C(=O)Oc2ccccc2C1=O", "outcome_measure": "GI50", "result": "16 µM (inactive)"}
{"compound": "COC1CCC2C(=O)CCCC2O1 (stereo unspecified)", "outcome_measure": "GI50", "result": "> 100 µM (inactive)"}
{"compound": "Cc1ccc(S(=O)(=O)/N=C(\\NN)Nc2ccc(Cl)cc2)cc1", "outcome_measure": "GI50", "result": "> 100 µM (inactive)"}
{"compound": "COc1cc(S(=O)(=O)Nc2ccc(-c3csc(N4C(=O)CSC4c4cccs4)n3)cc2)ccc1Cl (stereo unspecified)", "outcome_measure": "GI50", "result": "43.6 µM (inactive)"}
{"compound": "O=[N+]([O-])c1cc2c(cc1/C=N/n1c(CO)nc3ccccc31)OCO2", "outcome_measure": "GI50", "result": "> 100 µM (inactive)"}

###

Quick reference: GI50 of the listed items.
Tested on: SF-539
Test: NCI tumour cell line growth inhibition, 48 h
Calls of active or inactive are those of the source. Cut-off read from the data, not from the text of the source: active = GI50 up to about 1.1 µM and inactive = higher.

{"molecule": "O=C(O)C[C@H]1CCCCC12CCOC2=O (stereo not given in full)", "GI50": "> 100 µM (inactive)"}
{"molecule": "CC(=O)OC1CC2CC(=O)CC1N2C (stereo not given)", "GI50": "> 100 µM (inactive)"}
{"molecule": "CCOC(=N)CC(=O)Nc1ccccc1", "GI50": "> 46.5 µM (inactive)"}
{"molecule": "C/C=C/COC(=O)CO[N+](=O)[O-]", "GI50": "> 100 µM (inactive)"}
{"molecule": "COC(C)(C)[C@@H]1CCCN1C1=C(C)C(=O)OC1", "GI50": "> 100 µM (inactive)"}
{"molecule": "C=CC(O)C#Cc1cnc(OC)nc1OC (stereo not given)", "GI50": "> 100 µM (inactive)"}
{"molecule": "O=C1CC(c2c(-c3ccccc3)[nH]c3ccccc23)C(=O)N1c1ccccc1 (stereo not given)", "GI50": "> 100 µM (inactive)"}
{"molecule": "O=c1c2cc([N+](=O)[O-])cnc2sn1-c1ccc([N+](=O)[O-])cc1", "GI50": "29.2 µM (inactive)"}
{"molecule": "O=c1c2ccccc2c(=O)n2n1CC=CC2", "GI50": "> 100 µM (inactive)"}
{"molecule": "C=CCOC(=O)Cn1cnc2c(N)ncnc21", "GI50": "> 100 µM (inactive)"}
{"molecule": "CN(C)c1ncnc2c1Cc1ccccc1C(=O)N2C", "GI50": "> 100 µM (inactive)"}
{"molecule": "N=C(N)N/N=C/c1cc(Cl)cc(Cl)c1O", "GI50": "37.3 µM (inactive)"}
{"molecule": "O=C1Nc2ccccc2/C1=C1/Nc2ccccc2/C1=N\\OCCOC1OCC(O)C(O)C1O (stereo not given)", "GI50": "> 100 µM (inactive)"}
{"molecule": "COc1ccc(N2C(=O)C3c4[nH]c5ccc(F)cc5c4C4CCC(C(C)(C)C)CC4C3C2=O)cc1 (stereo not given)", "GI50": "6.35 µM (inactive)"}
{"molecule": "O=C(O)C1=C(O)C(C(=O)O)C23CCCCCCCCCCC12C(C(=O)O)C(O)=C3C(=O)O (stereo not given)", "GI50": "> 100 µM (inactive)"}
{"molecule": "O=[N+]([O-])c1ccc(S(=O)(=O)N=Ic2ccccc2)cc1", "GI50": "> 100 µM (inactive)"}
{"molecule": "[N-]=[N+]=NC1(Cc2ccccc2)C(=O)c2cccc3c2N(CCC3)C1=O (stereo not given)", "GI50": "> 100 µM (inactive)"}
{"molecule": "COC(=O)C1(NC(=O)C(N)CC(=O)O)C(C)C1C (stereo not given)", "GI50": "> 100 µM (inactive)"}
{"molecule": "COc1c(-c2ccccc2)nc2ccc(Oc3ccccc3)nn12", "GI50": "> 59.4 µM (inactive)"}
{"molecule": "COc1c(OC)c(OC)c2c(c1OC)c(=O)c1ccccc1n2C", "GI50": "> 100 µM (inactive)"}
{"molecule": "C[N+](C)([O-])C12CC3CC(CC(C3)C1)C2", "GI50": "23.4 µM (inactive)"}
{"molecule": "O=C(CC1C=CCS1(=O)=O)NCc1ccccc1 (stereo not given)", "GI50": "> 100 µM (inactive)"}
{"molecule": "COC(=O)CC1NC(=O)C1C1(C)OCCO1 (stereo not given)", "GI50": "> 100 µM (inactive)"}
{"molecule": "O=NC1C(Cl)C2CC1C1C(Br)C(Br)CC21 (stereo not given)", "GI50": "> 100 µM (inactive)"}
{"molecule": "CC12CCC(=O)[C@@]1(C)CCCC2=O (stereo not given in full)", "GI50": "> 100 µM (inactive)"}

###

Tested on: OVCAR-3
Assay: NCI tumour cell line growth inhibition, 48 h
Calls of active or inactive are those of the source. No stated cut-off is given here; in the data, active = GI50 up to about 1.1 µM and inactive = higher. Where a SMILES comes first, the peptide text is derived from it. [ ]: non-standard residue; d: D form. The star is where a group is joined. Phe(4-NO2) = N[CH](Cc1ccc([N+](=O)[O-])cc1)C(=O)O; Boc = CC(C)(C)OC(=O)*; OtBu = CC(C)(C)O*
Below: a set of entries, each annotated with reported GI50.

{"compound": "CC(C)c1cccc(=O)c(O)c1", "system_tested": "OVCAR-3", "GI50": "1.24 µM (inactive)"}
{"compound": "CC(C)C[C@H]1[C@@H](OCc2ccccc2)COS(=O)N1[C@H](C)c1ccccc1 (stereo partly drawn)", "system_tested": "OVCAR-3", "GI50": "10.2 µM (inactive)"}
{"compound": "COc1c(Cl)ccc(Cl)c1-c1nnc(-c2c(Cl)c(Cl)c(Cl)c(Cl)c2-c2nc3cc(C(=O)c4ccccc4)ccc3[nH]2)o1", "system_tested": "OVCAR-3", "GI50": "53.2 µM (inactive)"}
{"compound": "COC(C)(C)OCCN1CCN(CCN2C3=C(C=C(C(C)=O)C3)Sc3ccccc32)CC1", "system_tested": "OVCAR-3", "GI50": "22.2 µM (inactive)"}
{"compound": "N#CC(NNC(=O)c1ccccc1O)c1c(O)ccc2ccccc12 (stereo not drawn)", "system_tested": "OVCAR-3", "GI50": "2.54 µM (inactive)"}
{"compound": "CCCCCCCCCCCCCCCCc1c(O)nc(NN)nc1C(=O)OC", "system_tested": "OVCAR-3", "GI50": "> 50 µM (inactive)"}
{"compound": "COc1cc(C2CC(C)(O)Oc3cc4c(cc32)OCO4)cc(OC)c1OC (stereo not drawn)", "system_tested": "OVCAR-3", "GI50": "0.315 µM (active)"}
{"compound": "CC(=O)NC(CCC(=O)OC(C)(C)C)C(=O)NC(CCC(=O)OC(C)(C)C)C(=O)NC(Cc1ccc([N+](=O)[O-])cc1)C(=O)NC(CCCCNC(=O)OC(C)(C)C)C(=O)NC(CCCCNC(=O)OC(C)(C)C)C(=O)NCC(=O)O (stereo not drawn) (Ac-E(OtBu)E(OtBu)[Phe(4-NO2)]K(Boc)K(Boc)G-OH; configuration not given here)", "system_tested": "OVCAR-3", "GI50": "> 100 µM (inactive)"}

###

Test system: RXF 393
Test: NCI tumour cell line growth inhibition, 48 h
Calls of active or inactive are those of the source. Cut-off read from the data, not from the text of the source: active = GI50 up to about 1.1 µM and inactive = higher.
Classes used: 1.0 (active), 0.0 (inactive)

{"compound": "O=C(CN1CCN(Cc2ccccc2)CC1)c1ccc2[nH]c(=O)oc2c1", "system_tested": "RXF 393", "assigned_class": 0.0}
{"compound": "CN(Cc1nc2c(N)nc(N)nc2nc1N)c1ccc(C(=O)NC(CCC(=O)O)C(=O)O)cc1 (centres undefined)", "system_tested": "RXF 393", "assigned_class": 0.0}
{"compound": "CC1(C)C(=O)CCC(=O)C(C)(C)C2=CC=C(O2)C(C)(C)C(=O)CCC(=O)C(C)(C)C2=CC=C1O2", "system_tested": "RXF 393", "assigned_class": 0.0}
{"compound": "CCOC(=O)c1ccc(Nc2nc3ccc(C(F)(F)F)cc3nc2C(=O)OCC)cc1", "system_tested": "RXF 393", "assigned_class": 0.0}
{"compound": "O=C(O)C1OC1(c1cccc(Cl)c1)c1ccccc1Cl (centres undefined)", "system_tested": "RXF 393", "assigned_class": 0.0}
{"compound": "CCOc1ccc(/N=N/c2c(-c3ccccc3)nn(C(=O)CC(=O)Nc3ccccc3Cl)c2-c2ccccc2)cc1", "system_tested": "RXF 393", "assigned_class": 0.0}
{"compound": "C/C(=N\\NC(=S)N1CCC(C2CCN(C(=S)N/N=C(\\C)c3ccccn3)CC2)CC1)c1ccccn1", "system_tested": "RXF 393", "assigned_class": 0.0}
{"compound": "COc1cccc2c(N)c3cccc(C(=O)NCCN(C)C)c3nc12", "system_tested": "RXF 393", "assigned_class": 1.0}
{"compound": "CCCCC(/C=N/NC(=N)N)CC.Cc1cc(O)c(C(C)C)cc1S(=O)(=O)O", "system_tested": "RXF 393", "assigned_class": 0.0}
